src = PubChem BioAssay (NCATS)

Assay: Primary fluorescence-based thiol-reactive (MSTI) qHTS assay for identification of artifact compounds. (AID 1845221); further: nearly all actives have a fitted effect of over 65% in size
Details: MSTI thiol-reactivity probe, 1 h; series mostly up to 53.8 µM
Results filed as inconclusive are left out. Active and inactive are the calls of the source. The call rests on the fitted dose curve; in most records, active means well fitted inhibition curve with a large enough effect; inconclusive means small, poorly fitted or top-dose-only effect; inactive means no such curve, though single readings can be large or run the other way.
Write down the outcome that applies. Available outcomes: active, inactive

# input Test call for this compound, please: CC(C)[C@H]1CC[C@@]2(O)COC(=O)[C@H]2[C@@H]1/C=C(\CO)C(=O)O
# output inactive

# input Also need COc1cc2c(cc1O)CC[C@H]1[C@@H]2CC[C@]2(C)[C@H](O)CC[C@@H]12 , thanks.
# output inactive

# input Also need Nc1nccn2c(C3CCC(C(=O)O)CC3)nc(-c3cc4cccc(Cl)c4[nH]3)c12 (centres undefined) , thanks.
# output active

# input Also need COc1cc2ncnc(N3CCC(Oc4cnc5ccccc5n4)C3)c2cc1OC (centres undefined) , thanks.
# output inactive

# input Also need COc1cc(/C=C/C=O)cc(OC)c1O[C@@H]1O[C@H](CO)[C@@H](O)[C@H](O)[C@H]1O , thanks.
# output active

# input Also need CC(=O)OC1C[C@]2(C)C(O)CC(C)=C[C@H](OC(=O)c3ccc(O)cc3)C2[C@]1(O)C(C)C (some centres undefined) , thanks.
# output inactive

# input Also need COc1nc2sc(C(=O)NC3CC3)c(N)c2c(C)c1Cl , thanks.
# output inactive

# input Also need Cc1ccc(NC(=O)Nc2cc(C(F)(F)F)ccc2F)cc1Nc1ccc2c(c1)NC(=O)/C2=C\c1ccc[nH]1 , thanks.
# output active

# input Also need CNC(=O)c1ccccc1Nc1nc(Nc2ccc(N3CCNCC3)cc2)ncc1Cl , thanks.
# output active
